biological target: ligand binding domain of human RORγ (A262-S507) (Homo sapiens); construct: made in house; host or cells: E. coli; assay: General RORγ SPA binding assay (competition with [3H]25-hydroxycholesterol); settings: RORγ SPA binding assay, inhibition of [3H]25-hydroxycholesterol binding; read-out: IC50
pIC50: −log10 of the molar value.
recorded endpoint: pIC50

[1] Cc1cc(C)cc(COC(C)(CO)c2cnc(C)nc2C2CCN(C(=O)Cc3c(F)cccc3F)CC2)c1 (stereo not shown) [Compound E4]
[2] Cc1nc(C)c(-c2nnc(-c3ccnc(C(F)(F)F)n3)o2)c(C2CCN(C(=S)Nc3ccccc3C(F)(F)F)CC2)n1 [Compound C47]
Q: Hello, I am sorting some records. Could you say if 1 or 2 has the smaller pIC50 value? Indicate your choice by writing its label.
Result: 2
(2: 7.09, 1: 7.78)

[A] Cc1cc(C)cc(CNC(=O)c2cnc(C)nc2C2CCN(C(=O)C(F)(F)c3ccccc3)CC2)c1 [Compound A117]
[B] C/C(=N\Oc1ccnc(C(F)(F)F)c1)c1cnc(C)nc1C1CCN(C(=O)Nc2c(F)cccc2F)CC1 [Compound B37]
[C] CSc1ncc(C(C)(O)COc2cccc(C(F)(F)F)n2)c(C2CCN(C(=O)Nc3c(F)cccc3F)CC2)n1 (stereo not shown) [Compound D26]
[D] Cc1nc(N)nc(C2CCN(C(=O)Nc3c(F)cccc3F)CC2)c1-c1cnc(-c2ccnc(C(F)(F)F)n2)o1 [Compound C70]
[E] Cc1ncc(C(=O)NCc2cccc(Cl)c2)c(C2CCN(C(=O)Cc3c(F)cccc3F)CC2)n1 [Compound A40]
Q: Parameters: sort_field (pIC50), sort_dir (desc). Answer format: the labels, in the requested order.
Result: E, C, B, D, A

[1] CCC/C(=N\Oc1cccc(C(F)(F)F)c1)c1c(C)nc(C)nc1C1CCN(C(=O)Cc2c(F)cccc2F)CC1 [Compound B48]
[2] Cc1nc(N)nc(C2CCN(C(=O)Nc3c(F)cccc3F)CC2)c1C(=O)COc1ccnc(C(F)(F)F)n1 [Compound M10]
[3] Cc1cc(C)cc(CNC(=O)c2cnc(C)nc2C2CCN(CCc3ccccc3Cl)CC2)c1 [Compound A100]
Q: Exam item: list the entries in increasing order of pIC50. Answer format: the labels, in the requested order.
Result: 3, 1, 2

====

Target: ligand binding domain of human RORγ (A262-S507) (Homo sapiens, UniProt P51449)
Construct: made in house; host or cells: E. coli
Sequence (P51449 262-507): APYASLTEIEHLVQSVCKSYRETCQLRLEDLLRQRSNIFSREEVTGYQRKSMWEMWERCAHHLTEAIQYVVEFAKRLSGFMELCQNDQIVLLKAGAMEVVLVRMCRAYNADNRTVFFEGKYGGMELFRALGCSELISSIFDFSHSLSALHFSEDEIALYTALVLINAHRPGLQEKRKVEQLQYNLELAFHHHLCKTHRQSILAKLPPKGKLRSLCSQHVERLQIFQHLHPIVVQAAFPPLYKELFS
Experiment: General RORγ SPA binding assay (competition with [3H]25-hydroxycholesterol)
Details: RORγ SPA binding assay, inhibition of [3H]25-hydroxycholesterol binding; read-out: IC50
Protocol: Example 2 General RORγ SPA Binding Assay The binding of potential ligands to RORγ is measured by competition with [^3H]25-hydroxycholesterol using a scintillation proximity assay (SPA) binding assay. […] The reaction is read on a MicroBeta Trilux scintillation plate reader (Perkin Elmer). IC50 values are determined from the percentage inhibition of [^3H]25-hydroxycholesterol binding.
pIC50: −log10 of the molar value.
recorded endpoint: pIC50

Solved entries (count: 2):
molecule: CC(C)Oc1ncc(C(C)(O)COc2ccnc(C(F)(F)F)n2)c(C2CCN(C(=O)Nc3c(F)cccc3F)CC2)n1 (stereo not shown)
pIC50: 7.53

molecule: COc1ncc(C(C)(O)COc2ccnc(C(F)(F)F)n2)c(C2CCN(C(=O)Nc3c(F)cccc3F)CC2)n1 (stereo not shown)
pIC50: 8.34

[1] Cc1ncc(C(=O)NCc2ccnc(C(F)(F)F)c2)c(C2CCN(C(=O)Cc3c(F)cccc3F)CC2)n1
[2] CC(O)(COc1ccnc(C(F)(F)F)n1)c1cnc(OC(CF)CF)nc1C1CCN(C(=O)Nc2c(F)cccc2F)CC1 (stereo not shown)
Q: Param pair: 1 , 2 . Output: the one whose pIC50 is numerically greater. Indicate your choice by writing its label.
Result: 1
(1: 8.20, 2: 6.46)
